B1: LINE1-full (parent)
chain: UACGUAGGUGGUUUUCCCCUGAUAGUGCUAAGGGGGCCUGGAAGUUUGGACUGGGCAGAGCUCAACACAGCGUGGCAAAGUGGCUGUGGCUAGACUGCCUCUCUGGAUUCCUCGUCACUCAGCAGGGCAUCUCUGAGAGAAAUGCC

- Variants of: B1
- assayName: self-cleavage, relative activity (ratio to wild type); higher = more cleavage; in vitro, sequencing; the parent is a self-cleaving ribozyme
outcomeMeasure: self-cleavage

- constructSequence: "UACGUAGGUGGUUUUCCCCUGAUAGUGCUAAGGGGGCCUGGAAGUUUGGACUGGGCAGAGCUCAACACCGCGUGGCAAAGUGGCCGUGGCUAGACUGCCUCUCUGGAUUCCUCGUCACUCAGCAGGGCAUCUCUGAGAGAAAUGCC [A69C U85C]"
  observedValue: 0.03
- constructSequence: "UACGUAGGUGGUUUUCCCCUGAUAGUGCUAAGGGGGCCUGGAAGUUUGGACUGGGCAGAGCUCAACACAGCGUGGCAAACUGGCUGUGGCUAGACUGUCUCUCUGGAUUCCUCGUCACUCAGCAGGGCAUCUCUGAGAGAAAUGCC [G80C C98U]"
  observedValue: 0.26
- constructSequence: "UACGUAGGUGGUUUUCCCCUGAUAGUGCUAAGGGGGCCUGGAAGUUUGGACUGGGCAGAGCUCAACACAGCGUGGCAUAGUGGCUGUGGCUAGACUGCCUCUCUGGAUUCCUCGUCACUCAGCAGGGCAUCUCUGAGAGAAACGCC [A78U U143C]"
  observedValue: 1.31
- constructSequence: "UACGUAGGCGGUUUUCCCCUGAUAGUGCUAAGGGGGCCUGGCAGUUUGGACUGGGCAGAGCUCAACACAGCGUGGCAAAGUGGCUGUGGCUAGACUGCCUCUCUGGAUUCCUCGUCACUCAGCAGGGCAUCUCUGAGAGAAAUGCC [U9C A42C]"
  observedValue: 0.88
- constructSequence: "UACGUAGGUGGUUUUCCCCUAAUAGUGUUAAGGGGGCCUGGAAGUUUGGACUGGGCAGAGCUCAACACAGCGUGGCAAAGUGGCUGUGGCUAGACUGCCUCUCUGGAUUCCUCGUCACUCAGCAGGGCAUCUCUGAGAGAAAUGCC [G21A C28U]"
  observedValue: 1.22
- constructSequence: "UACGUAGGUGGUUUUCCCCUGAUAGUGCUAAGGGGGCCUGGAAGUUUGGACUGGACAGAGCUCAACACAGCGUGGCAAAGUGGCUGUGGCUAGACUGCCUCUCUGGAUCCCUCGUCACUCAGCAGGGCAUCUCUGAGAGAAAUGCC [G55A U109C]"
  observedValue: 0.1
- constructSequence: "UACGUAGGUGGUUUUCCCCUGAUAGUGCUAAGGGGGCCUGGAAGUUUGGACUGGGCAGAGCUCAACACAGCGCGGCAAAGUGGCUGUGGCUAGACUGCCUCUCUGGAUUCCUCGUCACUCAGUAGGGCAUCUCUGAGAGAAAUGCC [U73C C123U]"
  observedValue: 1.05
- constructSequence: "UACGUAGGUGGUUUUCCCCUGAUAGUGCUAAGGGGGCCUGGAAGUUUGGACUGGGCAGUGCUCAACACAGCGUGGCAAAGUGGCUGUGGCUAGACUGCCUCUCUGGAUUCCUCGUCACUCAGCAGGGCAUCUCUGAGCGAAAUGCC [A59U A138C]"
  observedValue: 1.23
- constructSequence: "UACGCAGGUGGUUUUCCCCUGAUAGUGCUCAGGGGGCCUGGAAGUUUGGACUGGGCAGAGCUCAACACAGCGUGGCAAAGUGGCUGUGGCUAGACUGCCUCUCUGGAUUCCUCGUCACUCAGCAGGGCAUCUCUGAGAGAAAUGCC [U5C A30C]"
  observedValue: 0.28
- constructSequence: "UACGUAGGUGGUUUACCCCUGAUAGUGCUAAGGGGGCCUGGAAGUUUGGACUGGGCAGAGCUCAACGCAGCGUGGCAAAGUGGCUGUGGCUAGACUGCCUCUCUGGAUUCCUCGUCACUCAGCAGGGCAUCUCUGAGAGAAAUGCC [U15A A67G]"
  observedValue: 0.41
- constructSequence: "UACGUAGGUGGUUUUCCCCUGAUAGUGCUAAGGGGGCCUGGAAGUUUGGACUGGGCAGAGCUCAACACAGCGUGGCAAUGUGGCUGUGGCCAGACUGCCUCUCUGGAUUCCUCGUCACUCAGCAGGGCAUCUCUGAGAGAAAUGCC [A79U U91C]"
  observedValue: 1.04
- constructSequence: "UACGUAGGUGGUUUUCCCCUGAUAGUGCUAAGGGGGCCUGGAAGUUUGGACUGGGCAGAGCUCAACACAGCGUGGCAAAGUGGCAGUGGCAAGACUGCCUCUCUGGAUUCCUCGUCACUCAGCAGGGCAUCUCUGAGAGAAAUGCC [U85A U91A]"
  observedValue: 0.11
- constructSequence: "UACGAAGGUGGUUUUCCCCUGAUAGUGCUAAGGGGGCCUGGAAGUUUGGACUGGGCAGAGCUCAACACAGCGUGGCAAAGUGGCUGUGGCUAGACUGCCUCUCUGGAUUCCUCGUCACUCAGCAGGGCAUCUCUGGGAGAAAUGCC [U5A A136G]"
  observedValue: 1.14
- constructSequence: "UACGUAGGUGGUCUUCCCCUGAUAGUGCUAAGGGGGCCUGGAAGUUUGGACUGGGCAGAGCUCAACACAGCGUGGCAAAGUGGCUGUGGCUAGACUGCCUCUCUGGAUUACUCGUCACUCAGCAGGGCAUCUCUGAGAGAAAUGCC [U13C C110A]"
  observedValue: 1.29
- constructSequence: "UACGUAGGUGGUUUUCCCCUGAUAGUGCUAAGGGGGCCUGGAAGUUUGGACAGUGCAGAGCUCAACACAGCGUGGCAAAGUGGCUGUGGCUAGACUGCCUCUCUGGAUUCCUCGUCACUCAGCAGGGCAUCUCUGAGAGAAAUGCC [U52A G54U]"
  observedValue: 1.84
- constructSequence: "UACGUAGGUGGUUUUCCCCUGAUAGUGCUAAGGGGGCCUGGAAGUUUGGACUGGGCUGAGCUCAACACAGCGUGGCAAAGUGGCUGUGGCUAGACUGCCUCUCUGGAUCCCUCGUCACUCAGCAGGGCAUCUCUGAGAGAAAUGCC [A57U U109C]"
  observedValue: 0.03
- constructSequence: "UACCUAGGUGGUUUUCCCCUGAUAGUGCUAAGGGGGCCUGGAAGUUUGGACUGGGCAGAGCUCAACACAGCGUGGCAAAGUGGCUGUGGCUAGACUGCCUCUCUGGAUUCCUCGUCACUCAGCGGGGCAUCUCUGAGAGAAAUGCC [G4C A124G]"
  observedValue: 0.48
- constructSequence: "UACGUAGGUGGUUUUCCCCUGAUAGUGCUAAGGGGGCCUGGAAGUUUGGACUGGGCAGAGCUCAACACAGCGUGGCUAAGUGGCUGUGGCUAGACUGCCUCUCCGGAUUCCUCGUCACUCAGCAGGGCAUCUCUGAGAGAAAUGCC [A77U U104C]"
  observedValue: 1.74
- constructSequence: "UACGUAGGUGGUUUGCCCCUGAUAGUGCUAAGGGGGCCUGGAAGUUUGGACUGGGCAGAGCUCAACACAGCGUGGCAAAGUGGCUGUGGCUAGACUGCCUCUCUGGAUUCCUCGUCACUCAGCAGGGCAUCUCUGAGGGAAAUGCC [U15G A138G]"
  observedValue: 0.53
- constructSequence: "UACGUAGGUGGUUUUCCCCUGAUAGUGCUAAGGGGGCCUGGAUGUUUGGACUGGGCAGAGCUCAACACAGCGUGGCAAAGUGGCUGUGGCUAGACUGCCUCUCUGGAUUCCUCGUCACUCAGCAGGGCAUCUCUGAGAGAGAUGCC [A43U A141G]"
  observedValue: 1.38
- constructSequence: "UACGUAGGUGGUUUUCCCCUGAUAGUGCUAAGGGGGCCUAGAAGUUUGGACUGGGCAGAGCUCAACACAGCGUGGCAAUGUGGCUGUGGCUAGACUGCCUCUCUGGAUUCCUCGUCACUCAGCAGGGCAUCUCUGAGAGAAAUGCC [G40A A79U]"
  observedValue: 1.13
- constructSequence: "UACGUAGGUGGUUUUCCCCUGAUAGUGCUAAGGGGGCCUGGAAGAUUGGACUGGGCAGAGCUCAACGCAGCGUGGCAAAGUGGCUGUGGCUAGACUGCCUCUCUGGAUUCCUCGUCACUCAGCAGGGCAUCUCUGAGAGAAAUGCC [U45A A67G]"
  observedValue: 0.37
